Test system: Cells stably expressing Amyloid Precursor Protein (APP)
assay.notes: In vitro BACE cell-based assay (HEK cell assay): Aβ40 in conditioned medium by sandwich ELISA
particulars: Homo sapiens, HEK293, 24 h, Aβ40 in conditioned medium after 24 h incubation
readout.label: IC50 (nM)
The answer is to be given in nM; state only the numeric part.

The examples below pair each entry with its known result.
# compound, system, unit.tag, IC50
records = [
    ("C=CC[C@H](NC(=O)c1cnccn1)[C@H](O)CN[C@H]1CC2(CCC2)Oc2ncc(CC(C)(C)C)cc21 [Example 98]", "Cells stably expressing Amyloid Precursor Protein (APP)", "nM", 1680),
    ("C=CCC(NC(=O)C1CN(C(=O)C(C)C)CCO1)C(O)CNC1CC2(CCC2)Oc2ncc(CC(C)(C)C)cc21 (centres unmarked) [Example 156]", "Cells stably expressing Amyloid Precursor Protein (APP)", "nM", 33),
    ("C=CCC(NC(=O)C1CC1OCC)C(O)CNC1CC2(CCC2)Oc2ncc(CC(C)(C)C)cc21 (centres unmarked) [Example 153]", "Cells stably expressing Amyloid Precursor Protein (APP)", "nM", 129),
]

query: Look up and state reported IC50 for C=CC[C@H](NC(=O)c1cccc2c1OCO2)[C@H](O)CN[C@H]1CC2(CCC2)Oc2ncc(CC(C)(C)C)cc21 [Example 103]
result: 2540

query: Supply recorded IC50 for C=CC[C@H](NC(C)=O)[C@H](O)CN[C@H]1CC2(CCC2)Oc2c1cc(CC(C)(C)C)nc2N(C)C [Example 45] here.
result: 6340

query: Name the recorded IC50 of the item C=CC[C@H](NC(=O)COC(C)(C)C)[C@H](O)CN[C@H]1CC2(CCC2)Oc2ncc(CC(C)(C)C)cc21 [Example 144] in your answer.
result: 1130

query: Look up and state reported IC50 for C=CC[C@H](NC(=O)[C@@H](C)OC)[C@H](O)CN[C@H]1CC2(CCC2)Oc2ncc(CC(C)C)cc21 [Example 42]
result: 269

query: Recall and state the measured IC50 for C=CC[C@H](NC(=O)[C@@H](OC)C(C)C)[C@H](O)CN[C@H]1CC2(CCC2)Oc2ncc(CC(C)(C)C)cc21 [Example 149] .
result: 1870

query: Supply recorded IC50 for C=CC[C@H](NC(=O)c1csc(F)c1)[C@H](O)CN[C@H]1CC2(CCC2)Oc2ncc(CC(C)(C)C)cc21 [Example 135] here.
result: 1300

query: Let me know recorded IC50 for C=CC[C@H](NC(=O)c1ccc(F)c(F)c1F)[C@H](O)CN[C@H]1CC2(CCC2)Oc2ncc(CC(C)(C)C)cc21 [Example 73] , thanks.
result: 2650

query: Return IC50 for the following compound: C=CC[C@H](NC(=O)[C@H](F)c1ccccc1)[C@H](O)CN[C@H]1CC2(CCC2)Oc2ncc(CC(C)(C)C)cc21 [Example 143]
result: 539

query: Kindly indicate its recorded IC50. Item: CC(=O)N[C@@H](CC=C1CCC1)[C@H](O)CN[C@H]1CC2(CCC2)Oc2ncc(CC(C)(C)C)cc21 [Example 83]
result: 18

query: Read the entry C=CCC(NC(=O)COC)C(O)CNC1CC2(CC(O)C2)Oc2ncc(CC(C)(C)C)cc21 (centres unmarked) [Example 107] and write its reported IC50.
result: 35

query: Give reported IC50 value for CC#CC[C@H](NC(=O)COC)[C@H](O)CN[C@H]1CC2(CCC2)Oc2ncc(CC(C)(C)C)cc21 [Example 89]
result: 132

----------
system: BACE1 (Homo sapiens, UniProt P56817)
Sequence (P56817 46-501, species assumed): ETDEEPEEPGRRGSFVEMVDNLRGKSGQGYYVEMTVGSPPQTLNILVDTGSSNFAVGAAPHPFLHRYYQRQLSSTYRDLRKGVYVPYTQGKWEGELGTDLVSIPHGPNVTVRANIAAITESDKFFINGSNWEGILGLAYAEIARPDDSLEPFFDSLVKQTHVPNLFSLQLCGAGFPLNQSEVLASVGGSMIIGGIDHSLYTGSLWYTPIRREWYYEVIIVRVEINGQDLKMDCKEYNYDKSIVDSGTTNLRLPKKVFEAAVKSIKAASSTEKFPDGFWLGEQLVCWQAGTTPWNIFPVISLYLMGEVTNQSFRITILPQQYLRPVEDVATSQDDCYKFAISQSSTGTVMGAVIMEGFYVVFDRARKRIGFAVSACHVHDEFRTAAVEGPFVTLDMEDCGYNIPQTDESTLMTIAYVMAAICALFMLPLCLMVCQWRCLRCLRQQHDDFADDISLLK
assay.notes: In vitro enzymatic BACE FRET (fluorescence resonance energy transfer) assay
Type: biochemical
This section presents molecules with their documented IC50 values.
Write the number in nM without appending the unit.

Solved cases (6 shown):
# molecule, IC50, nM
measured = [
    ("C=CC[C@H](NC(=O)c1cncc(F)c1)[C@H](O)CN[C@H]1CC2(CCC2)Oc2ncc(CC(C)(C)C)cc21", 125),
    ("C=CC[C@H](NC(=O)c1cccc(F)c1F)[C@H](O)CN[C@H]1CC2(CCC2)Oc2ncc(CC(C)(C)C)cc21", 155),
    ("C=CC[C@H](NC(=O)c1ccn(C)n1)[C@H](O)CN[C@H]1CC2(CCC2)Oc2ncc(CC(C)(C)C)cc21", 302),
    ("C=CC[C@H](NC(=O)COC)[C@H](O)CN[C@H]1CC2(CCC2)Oc2ncc(C[C@@H](C)C(F)(F)F)cc21", 412),
    ("C=CC[C@H](NC(=O)COC)[C@H](O)CNC1CC2(CCC2)Oc2ncc(CC(C)C)cc21 (stereo partly shown)", 147),
    ("C=CC[C@H](NC(=O)CF)[C@H](O)CN[C@H]1CC2(CCC2)Oc2ncc(CC(C)(C)C)cc21", 68),
]

Moving on to the next molecule.
query: Give the value of IC50 reported for the following: `C=CC[C@H](NC(=O)COC)[C@H](O)CN[C@H]1CC2(CCC2)Oc2ccc(CC(C)(C)C)cc21`
result: 61

----------
system: BACE1 (Homo sapiens, UniProt P56817)
assay.notes: In vitro enzymatic BACE FRET (fluorescence resonance energy transfer) assay
Type: biochemical
# Lookup of reported pIC50 keyed by entry
The meaning of pIC50 here: minus log10 of the concentration in molar units.

Before answering, review these 5 worked examples.
# compound, readout.value
records = [
    ("C=CCC(NC(C)=O)C(O)CNC1CC2(CC(O)C2)Oc2ccc(Br)cc21 (centres unmarked) [Example 118]", 5.22),
    ("C=CCC(NC(=O)C1CC1OCC)C(O)CNC1CC2(CCC2)Oc2ncc(CC(C)(C)C)cc21 (centres unmarked) [Example 154]", 6.86),
    ("C=CC[C@H](NC(=O)[C@@H](C)OC)[C@H](O)CN[C@H]1CC2(CCC2)Oc2ncc(CC(C)C)cc21", 7.00),
    ("C=CC[C@H](NC(=O)COC)[C@H](O)CN[C@H]1CC2(CCC2)Oc2ncc(C[C@H](C)C(F)(F)F)cc21", 6.75),
    ("CC=CC[C@H](NC(=O)COC)[C@H](O)CN[C@H]1CC2(CC(F)C2)Oc2ncc(CC(C)(C)C)cc21 (some centres unmarked)", 7.40),
]

query: Could you please provide reported pIC50 for `C=CC[C@H](NC(=O)c1ccccc1)[C@H](O)CN[C@H]1CC2(CCC2)Oc2ncc(CC(C)(C)C)cc21` ? Thanks!
result: 6.90

query: Complete the entry with pIC50 for `C=CC[C@H](NC(=O)COC)[C@H](O)CN[C@H]1CC2(CCC2)Oc2c1cc(CC(C)(C)C)nc2N1CCCC1`
result: 7.08

query: Name the recorded pIC50 of the item `C=CC[C@H](NC(=O)[C@@H]1CC1(F)F)[C@H](O)CN[C@H]1CC2(CCC2)Oc2ncc(CC(C)(C)C)cc21` in your answer.
result: 6.42

query: Using the record for `C=CC[C@H](NC(=O)c1ccc2c(c1)OC(F)(F)O2)[C@H](O)CN[C@H]1CC2(CCC2)Oc2ncc(CC(C)(C)C)cc21` , state its measured pIC50.
result: 6.81

query: Please report pIC50 for the following compound: `C=CC[C@H](NC(=O)c1c(F)cccc1F)[C@H](O)CN[C@H]1CC2(CCC2)Oc2ncc(CC(C)(C)C)cc21`
result: 6.56

query: Kindly indicate its recorded pIC50. Item: `C=CC[C@H](NC(=O)c1cncs1)[C@H](O)CN[C@H]1CC2(CCC2)Oc2ncc(CC(C)(C)C)cc21`
result: 7.21

query: Read the entry `C=CC[C@H](NC(=O)[C@H](CC)OC)[C@H](O)CN[C@H]1CC2(CCC2)Oc2ncc(CC(C)(C)C)cc21` and write its reported pIC50.
result: 7.02

query: Given `C=CC[C@H](NC(=O)[C@H](C)OC)[C@H](O)CN[C@H]1CC2(CCC2)Oc2ncc(CC(C)(C)C)cc21` , respond with its pIC50.
result: 6.84

query: Return pIC50 (reported value) for this compound: CC#CCC(NC(=O)C1CCC(=O)O1)C(O)CNC1CC2(CCC2)Oc2ncc(CC(C)(C)C)cc21 (centres unmarked)
result: 7.70

----------
This listing pairs molecules with measured log10 of IC50 at 10 min.
system: UniProtKB P08684
Sequence (P08684 2-503): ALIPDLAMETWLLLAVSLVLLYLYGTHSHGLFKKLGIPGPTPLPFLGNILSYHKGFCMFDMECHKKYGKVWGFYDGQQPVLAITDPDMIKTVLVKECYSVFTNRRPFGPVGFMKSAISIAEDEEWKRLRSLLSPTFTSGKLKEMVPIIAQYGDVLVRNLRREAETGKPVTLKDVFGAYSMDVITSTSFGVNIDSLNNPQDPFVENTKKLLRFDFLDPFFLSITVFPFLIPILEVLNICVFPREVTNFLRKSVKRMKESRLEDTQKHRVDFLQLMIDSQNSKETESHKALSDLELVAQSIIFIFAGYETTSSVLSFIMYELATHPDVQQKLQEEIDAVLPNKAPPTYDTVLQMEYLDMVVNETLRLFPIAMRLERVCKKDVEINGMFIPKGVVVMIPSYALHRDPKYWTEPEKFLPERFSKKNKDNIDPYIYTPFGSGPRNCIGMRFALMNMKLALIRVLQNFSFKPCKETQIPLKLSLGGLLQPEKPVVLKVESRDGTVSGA
assay.notes: CYP3A inhibition assay (midazolam, pooled human liver microsomes)
Type: in vitro ADME
particulars: human, pooled human liver microsomes, pH 7.4, probe midazolam (printed as about […]); read-out: 3A4 IC50
Log10 applied to IC50 at 10 min; unit prior to transform: nM.

Illustrative cases are given below, each with its answer.
# sample.smiles, system, log10 of IC50 at 10 min
data = [
    ("C=CC[C@H](NC(=O)COC)[C@H](O)CN[C@H]1CC2(CCC2)Oc2c1cc(CC(C)(C)C)nc2Nc1ccncc1", "UniProtKB P08684", 2.85),
    ("C=CC[C@H](NC(=O)COCC)[C@H](O)CN[C@H]1CC2(CCC2)Oc2ncc(CC(C)(C)C)cc21", "UniProtKB P08684", 3.11),
    ("C=CC[C@H](NC(=O)COC)[C@H](O)CN[C@H]1CC2(CCC2)Oc2ncc(C(F)(F)C(C)(C)C)cc21", "UniProtKB P08684", 3.61),
]

Below: the item to evaluate.
query: Annotate the molecule `C#CC[C@H](NC(=O)[C@@H](C)OC)[C@H](O)CN[C@H]1CC2(CCC2)Oc2c1cc(CC(C)(C)C)nc2NC` with its measured log10 of IC50 at 10 min.
result: 3.15
